- tgt: UniProtKB O00574
- Sequence (O00574 whole entry, looked up): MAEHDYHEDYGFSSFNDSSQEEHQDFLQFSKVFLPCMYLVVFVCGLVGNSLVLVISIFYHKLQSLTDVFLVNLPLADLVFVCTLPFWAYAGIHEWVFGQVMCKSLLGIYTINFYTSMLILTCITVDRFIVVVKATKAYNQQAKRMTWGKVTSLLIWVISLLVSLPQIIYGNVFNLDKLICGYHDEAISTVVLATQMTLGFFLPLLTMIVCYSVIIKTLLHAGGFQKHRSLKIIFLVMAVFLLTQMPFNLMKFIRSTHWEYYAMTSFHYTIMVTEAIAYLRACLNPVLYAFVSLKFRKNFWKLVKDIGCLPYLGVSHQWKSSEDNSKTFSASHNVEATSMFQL
- procedure.text: potency against CXCR6 with APJ panel – cell-based, beta-arrestin, DiscoveRx, uHTS hits, dose response (AID 624129)
- test.context: CXCR6 beta-arrestin (DiscoveRx) antagonist cell assay, CXCR6, dose range 1
Activity calls are given as the source filed them. How the calls were made is not given here.
Respond using exactly one of the listed classes: true (active), false (inactive)

Prompt line: Hey, what did the test say about O=C(Nc1ccccc1Cl)/C(Cl)=C(\Cl)S(=O)c1ccccc1 (stereo unspecified) ?
Response line: true

Prompt line: Tell me the recorded outcome of this test for "CCOc1ccccc1NC(=O)c1nc(S(=O)(=O)Cc2ccccc2)ncc1Cl" .
Response line: true

Prompt line: Recorded test outcome, item CC(C)N=C1CCCC1C(=S)SSC(=S)C1CCCC1=NC(C)C (stereo unspecified)
Response line: false

Prompt line: Test call, this molecule: "C/C(=N\NC(=O)COc1ccccc1-c1ccccc1)c1ccccn1"
Response line: true

Prompt line: Hey, what did the test say about C=C1CC(COc2ccc3c(C)c(Cl)c(=O)oc3c2)(c2ccccc2)OC1=O (stereo unspecified) ?
Response line: true

Prompt line: // return assay outcome for "Cc1ccc(OCCn2c(NC(=O)c3ccco3)nc3ccccc32)cc1"
Response line: true

Prompt line: What was the test verdict on "COc1cc(/C=C/c2ccc3cccc(O)c3n2)ccc1O" ?
Response line: false

Prompt line: Give the logged outcome of this assay for the following molecule: "Oc1c(Cl)cc(Cl)c2cccnc12"
Response line: true

Prompt line: Fill in: this test's call for "Cc1ccc(C(=O)Sc2cccccc2=O)cc1" is ___
Response line: true

Prompt line: Dear colleague, could you share the recorded outcome for "COc1ccccc1-c1cc(C(F)(F)F)nc(S(=O)(=O)CCCC(=O)NCc2ccc(F)cc2)n1" when you have a moment?
Response line: false

Prompt line: Test call, this molecule: "CCS(=O)(=O)c1ncc(Cl)c(C(=O)Nc2ccc(S(=O)(=O)N3CCC(C)CC3)cc2)n1"
Response line: true

Prompt line: # fetch the recorded call for "FC(F)(F)c1cnc(NNC(=S)Nc2ccccc2Cl)c(Cl)c1" here
Response line: false

Prompt line: Hi, do you know how CC(=O)NC(=S)Nc1sc2c(c1C(N)=O)CCC(C)C2 (stereo unspecified) came out in this test?
Response line: false

Prompt line: Outcome? "COc1ccc(C(=O)/C(=C\c2ccco2)N2C=CC=CC2=C(C#N)C#N)cc1"
Response line: true

Prompt line: Could you please tell me the result logged for "CCOc1ccc(N(CC(=O)N/N=C/c2ccccn2)S(=O)(=O)c2ccc(Cl)cc2)cc1" in this assay?
Response line: false

Prompt line: Per the assay record, what outcome was assigned to "O=[N+]([O-])c1c(Nc2ccc(O)cc2)cc(Cl)c2nonc12" ?
Response line: true

Prompt line: Recorded test call requested for "O=[N+]([O-])c1ccc(S(=O)(=O)c2ccccc2)nc1"
Response line: false

Prompt line: Give the logged outcome of this assay for the following molecule: "CC(=O)OCCCNc1cc(Sc2ccc(Cl)cc2)c2nonc2c1[N+](=O)[O-]"
Response line: true

Prompt line: What outcome does the record of this test show for "CCN1/C(=C\C=C2\C(=O)N(c3ccccc3)C(=S)N2C)Sc2ccccc21" ?
Response line: true

Prompt line: What did this assay record as the result for "Cc1cc(C)c2ccc(N)nc2c1O" ?
Response line: false

Prompt line: Can you look up the reported call for "CC(=O)Nc1ccc(Sc2ccc([N+](=O)[O-])o2)cc1" for me?
Response line: true

Prompt line: Per the records of this test, what outcome belongs to C=C1CC(COc2cc(=O)oc3ccccc23)(c2ccccc2)OC1=O (stereo unspecified) ?
Response line: true

Prompt line: For this molecule, state the assay outcome: "CN(C)S(=O)(=O)c1cccc(NC(=O)CSc2cccc3cccnc23)c1"
Response line: false

Prompt line: I would be grateful if you could indicate the recorded call for "O=C1C=CC2(O[C@H](c3ccccc3)[C@@H](c3ccccc3)O2)[C@H](Sc2ccccc2O)C1" .
Response line: true

Prompt line: Each molecule tested received a call. Report the one for "CCCCCCCCn1sccc1=O" .
Response line: true

Prompt line: Please share the test call associated with "Cc1ccc2c(Cl)cc(Cl)c(O)c2n1" .
Response line: true

Numbers sourced from PubChem BioAssay AID624129.
